target: recombinant human Myt1 (full length PKMYT1) (Homo sapiens (Human)); experiment: Recombinant human Myt1 kinase assay (ADP-Glo); conditions: 10 μM ATP
Sequence (Q99640 whole entry): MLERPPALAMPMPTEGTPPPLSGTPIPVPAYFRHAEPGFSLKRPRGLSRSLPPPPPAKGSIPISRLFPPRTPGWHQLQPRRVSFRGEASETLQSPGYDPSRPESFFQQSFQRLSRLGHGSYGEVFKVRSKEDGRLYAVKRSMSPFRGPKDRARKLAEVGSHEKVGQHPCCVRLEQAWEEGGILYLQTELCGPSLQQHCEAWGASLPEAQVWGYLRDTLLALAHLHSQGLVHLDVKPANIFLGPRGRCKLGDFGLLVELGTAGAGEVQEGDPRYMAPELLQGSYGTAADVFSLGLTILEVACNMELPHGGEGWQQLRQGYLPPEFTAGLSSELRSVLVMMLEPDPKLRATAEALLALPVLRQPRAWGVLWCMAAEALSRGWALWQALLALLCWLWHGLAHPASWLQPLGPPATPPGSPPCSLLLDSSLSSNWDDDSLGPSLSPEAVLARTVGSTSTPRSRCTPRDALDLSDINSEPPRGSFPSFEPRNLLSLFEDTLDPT
We label by threshold. Values of IC50 strictly beneath 20 nM are fulfilled. Values of 20 nM and up are not fulfilled.

Example cases with answers are listed next.
Challenge: IC50 strictly < 20 nM for this molecule? `Cc1ccc2[nH]ncc2c1-c1cc(C(N)=O)nc(-c2cccnc2Nc2nc(F)ccc2F)n1`
Response given: fulfilled

Challenge: Could you do the same for COc1cccc(-c2cc(-c3c(C)ccc(O)c3C)c(N)c(C(N)=O)n2)n1 [Compound 66] , please?
Response given: fulfilled

Challenge: What would you report for `Cc1ccc2[nH]ncc2c1-c1nc(-c2ccc(N3CCOCC3)cc2)nc(C(N)=O)c1N` ?
Response given: not fulfilled

Challenge: Can you check `Cc1ccc2[nH]ncc2c1-c1nc(-c2cc(F)c(F)cc2NC(=O)C2(C#N)CC2)nc(C(N)=O)c1N` next?
Response given: fulfilled

Challenge: Next up: `Cc1ccc(O)c(C)c1-c1nc(-c2ccccc2NC(=O)C2(C)CC2)cc(C(N)=O)c1N`
Response given: fulfilled

Continuing:
Challenge: State whether 20 nM exceeds IC50 recorded for Cc1ccc2[nH]ncc2c1-c1cc(-c2cccc(OCCN3CCCC3)n2)nc(C(N)=O)c1N [Compound 180] .
Response given: fulfilled

Challenge: Please do the same for `Cc1ccc2[nH]ncc2c1-c1nc(-c2cn(CC3CC3)nc2NC2CCOCC2)nc(C(N)=O)c1N` as well.
Response given: fulfilled

Challenge: Consider next the molecule Cc1ccc2[nH]ncc2c1-c1cc(-c2ccnnc2)nc(C(N)=O)c1N [Compound 95] in the same way.
Response given: fulfilled

Challenge: What do you get for `Cc1ccc(O)c(C)c1-c1cc(-c2cc(F)cc(F)c2)nc(C(N)=O)c1N` ?
Response given: fulfilled

The reported numbers originate from patent US20250304537A1.
